system: HCC-2998 colon; test: NCI-60 one-dose screen, 48 h (100 = growth as untreated, 0 = no growth, -100 = all killed); settings: 10 µM unless noted
The panel holds about 83,000 compounds, 20% with a hit somewhere; the sample as a whole holds those more often.
growth for assorted compounds
Express your answer in %, writing the number without its unit.

Use these answered entries as a reference point.
>>> print(df.to_string())
                            compound_string  unit  endpoint_result
0  COc1ccc(/C=C/c2nc(Nc3ccc(S(=O)(=O)Nc4cc(C)on4)cc3)c3ccccc3n2)cc1     %             69.6
1  COc1cc2nc(-c3ccc(Cl)cc3)cc(OCCCN3CCC(O)CC3)c2cc1OC     %             69.9
2  COc1cc(-c2n/c(=C\c3c(O)[nH]c4ccc(Cl)cc34)cc3c2=Nc2ccccc2-3)ccc1F     %             71.6
3  C=C1C(=O)O[C@H]2[C@H]1CC/C(COC(=O)NCc1c[nH]c3ccc(F)cc13)=C\CC[C@@]1(C)O[C@@H]21     %             68.3
4  Cc1ccc(/C=N/NC(=O)CSc2nc3ccccc3c(=O)n2Cc2ccc(S(N)(=O)=O)cc2)cc1     %             99.9

Identify the measured growth of "COc1ccc(/C=C2\Oc3cc(OCCCN4CCCCC4)ccc3C2=O)cc1OC" for HCC-2998 colon.
108

Identify the measured growth of "C=C(CBr)[C@@H]1CC[C@]2(COC(C)=O)CC[C@]3(C)[C@H](CC[C@@H]4[C@@]5(C)CCCNC(C)(C)[C@@H]5CC[C@]43C)[C@@H]12" for HCC-2998 colon.
50.8

Hey, just so you know, these numbers are from PubChem BioAssay (NCI).
